# Protocol Notes: HUVEC growth inhibition – cell-based, human, primary screen (AID 575);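 note: 100% = median of untreated cell wells with 0.1% DMSO on each plate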
# Study Conditions: HUVEC proliferation, CellTiter-Glo luminescence, 72 h; at 10 µM; active compounds read low
Measured Endpoint: viability (%)
Give the quantity in %, number only.

{"Compound": "CN(C)c1ccc(/C=C/c2ccncc2)cc1", "Measured Endpoint": "viability", "Units Text": "%", "Numeric Readout": 89.9}
{"Compound": "COC(=O)c1cc(NC(=O)C2COc3ccccc3O2)cc(C(=O)OC)c1 (centres undefined)", "Measured Endpoint": "viability", "Units Text": "%", "Numeric Readout": 91.1}
{"Compound": "Cc1nc(NS(=O)(=O)c2ccccc2)sc1NC(=O)OC(C)C", "Measured Endpoint": "viability", "Units Text": "%", "Numeric Readout": 90.3}

Now for the compound whose viability we want.
For the compound CNC(=O)CC(C(=O)O)c1ccc(OC(C)C)cc1 (centres undefined) , give its reported viability.
92.3
